# cond: in transcutol, 298.15 K
experimentalEndpoint: solubility (mole fraction)
Numbers only.

Given item CN1CC(=O)N2[C@H](c3ccc4c(c3)OCO4)c3[nH]c4ccccc4c3C[C@@H]2C1=O , the value recorded as its solubility (mole fraction) is 0.00876

* * *

# cond: in transcutol, 328.15 K
experimentalEndpoint: solubility (mole fraction)

Given item CN1CC(=O)N2[C@H](c3ccc4c(c3)OCO4)c3[nH]c4ccccc4c3C[C@@H]2C1=O , the value recorded as its solubility (mole fraction) is 0.0166

* * *

# cond: in water, 328.15 K
experimentalEndpoint: solubility (mole fraction)

Given item CN1CC(=O)N2[C@H](c3ccc4c(c3)OCO4)c3[nH]c4ccccc4c3C[C@@H]2C1=O , the value recorded as its solubility (mole fraction) is 2.77e-06
